# Tgt: Protein cereblon/Serine/threonine-protein kinase PLK4 (Homo sapiens, UniProt O00444+Q96SW2)
# Sequence (O00444 whole entry, looked up): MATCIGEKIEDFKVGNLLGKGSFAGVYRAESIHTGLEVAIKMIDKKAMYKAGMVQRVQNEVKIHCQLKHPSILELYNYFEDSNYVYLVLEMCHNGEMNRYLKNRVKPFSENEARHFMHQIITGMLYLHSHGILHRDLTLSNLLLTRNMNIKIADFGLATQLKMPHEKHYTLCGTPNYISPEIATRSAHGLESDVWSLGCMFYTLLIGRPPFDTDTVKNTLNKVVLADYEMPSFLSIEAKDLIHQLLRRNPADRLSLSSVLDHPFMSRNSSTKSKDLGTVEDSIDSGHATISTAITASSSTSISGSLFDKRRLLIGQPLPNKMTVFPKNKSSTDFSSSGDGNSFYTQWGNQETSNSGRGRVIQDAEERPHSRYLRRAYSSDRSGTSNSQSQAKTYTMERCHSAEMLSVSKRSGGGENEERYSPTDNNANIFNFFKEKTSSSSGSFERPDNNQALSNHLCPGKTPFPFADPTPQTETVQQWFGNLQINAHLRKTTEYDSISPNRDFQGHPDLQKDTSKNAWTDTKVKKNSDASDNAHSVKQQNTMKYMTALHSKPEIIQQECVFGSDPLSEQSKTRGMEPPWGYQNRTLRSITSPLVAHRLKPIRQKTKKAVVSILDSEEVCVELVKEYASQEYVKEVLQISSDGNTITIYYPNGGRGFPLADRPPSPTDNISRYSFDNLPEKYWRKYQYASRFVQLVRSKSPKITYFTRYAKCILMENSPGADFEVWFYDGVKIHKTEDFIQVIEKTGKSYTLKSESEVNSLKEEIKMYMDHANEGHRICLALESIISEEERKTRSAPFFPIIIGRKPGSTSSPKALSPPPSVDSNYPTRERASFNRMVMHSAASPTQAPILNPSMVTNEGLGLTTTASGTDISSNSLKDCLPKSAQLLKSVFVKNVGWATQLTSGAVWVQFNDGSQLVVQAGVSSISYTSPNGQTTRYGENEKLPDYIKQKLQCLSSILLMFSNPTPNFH
# Sequence (Q96SW2 whole entry, looked up): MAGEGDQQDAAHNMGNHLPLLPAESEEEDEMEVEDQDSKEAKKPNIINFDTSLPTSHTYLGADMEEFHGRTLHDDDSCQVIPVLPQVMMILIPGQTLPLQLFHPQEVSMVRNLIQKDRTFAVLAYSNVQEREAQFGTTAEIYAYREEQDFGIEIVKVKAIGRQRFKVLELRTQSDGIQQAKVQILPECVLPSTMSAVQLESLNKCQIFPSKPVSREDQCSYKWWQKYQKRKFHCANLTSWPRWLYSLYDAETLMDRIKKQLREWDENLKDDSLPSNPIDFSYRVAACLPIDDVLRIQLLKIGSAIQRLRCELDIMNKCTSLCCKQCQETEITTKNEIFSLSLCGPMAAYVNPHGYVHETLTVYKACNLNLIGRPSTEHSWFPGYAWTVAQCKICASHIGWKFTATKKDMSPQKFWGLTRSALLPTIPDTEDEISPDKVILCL
# Test Protocol: Protac activity at CRBN/PLK4 in human MCF7 cells at 1 uM incubated for 48 hrs by Western blot analysis
# Type: cell-based
Measured Quantity: Activity (%)

(A) Cc1cc(Nc2nc(NCc3ccc(F)cc3F)nc3c2cnn3C2CCN(CC3CCN(c4ccc5c(c4)C(=O)N(C4CCC(=O)NC4=O)C5=O)C3)CC2)n[nH]1 (stereo not given)
(B) Cc1cc(Nc2nc(NCc3ccc(F)cc3F)nc3c2cnn3C2CCN(C(=O)CC3CC4(C3)CN(c3ccc5c(c3)C(=O)N(C3CCC(=O)NC3=O)C5=O)C4)CC2)n[nH]1 (stereo not given)
(C) Cc1cc(Nc2nc(NCc3ccc(F)cc3F)nc3c2cnn3C2CCN(C(=O)CC3CCN(c4ccc5c(c4)C(=O)N(C4CCC(=O)NC4=O)C5=O)CC3)CC2)n[nH]1 (stereo not given)
(D) Cc1cc(Nc2nc(NCc3ccc(F)cc3F)nc3c2cnn3C2CCN(C(=O)C3CC4(C3)CN(c3ccc5c(c3)C(=O)N(C3CCC(=O)NC3=O)C5=O)C4)CC2)n[nH]1 (stereo not given)
(E) Cc1cc(Nc2nc(NCc3ccc(F)cc3F)nc3c2cnn3C2CCN(C(=O)CCOCCOc3ccc4c(c3)C(=O)N(C3CCC(=O)NC3=O)C4=O)CC2)n[nH]1 (stereo not given)
### Prompt Hey, quick one: sort these by Activity, largest value first please. # respond with the labels, arranged in the requested order
### Response C, E, A, B, D
(C: 51%, E: 13.4%, A: 8.91%, B: 5.49%, D: 2.39%)
